- tested on: UniProt P08912
- Sequence (P08912 whole entry, looked up): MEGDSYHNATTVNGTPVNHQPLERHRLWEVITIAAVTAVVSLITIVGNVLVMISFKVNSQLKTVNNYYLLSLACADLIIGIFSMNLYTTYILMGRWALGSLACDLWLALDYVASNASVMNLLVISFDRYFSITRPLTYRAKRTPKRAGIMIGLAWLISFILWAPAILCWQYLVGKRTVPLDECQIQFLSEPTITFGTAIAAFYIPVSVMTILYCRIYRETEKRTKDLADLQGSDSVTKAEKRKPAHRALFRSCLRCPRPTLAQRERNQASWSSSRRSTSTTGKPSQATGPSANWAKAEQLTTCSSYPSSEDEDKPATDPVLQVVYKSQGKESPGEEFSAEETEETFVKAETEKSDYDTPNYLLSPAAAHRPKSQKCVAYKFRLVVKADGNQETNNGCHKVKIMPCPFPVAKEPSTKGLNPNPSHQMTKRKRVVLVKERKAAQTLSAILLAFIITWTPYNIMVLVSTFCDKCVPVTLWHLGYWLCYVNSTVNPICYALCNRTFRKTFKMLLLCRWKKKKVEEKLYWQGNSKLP
- assay explanation: human M5 positive allosteric modulators, CHO cells (AID 651927)
- reported conditions: CHO-K1 hM5, Fluo-4 calcium flux, ACh EC20 potentiation
assay endpoint: EC50

EC50 lookup needed for O=C1C(=O)N(CCOc2ccccc2)c2ccc(OC(F)(F)F)cc21 , thanks.
589 nM

Source listed as PubChem BioAssay AID651927.
